# Measurement target: Factor D (Homo sapiens (Human), UniProt P00746)
# Sequence (P00746 26-253): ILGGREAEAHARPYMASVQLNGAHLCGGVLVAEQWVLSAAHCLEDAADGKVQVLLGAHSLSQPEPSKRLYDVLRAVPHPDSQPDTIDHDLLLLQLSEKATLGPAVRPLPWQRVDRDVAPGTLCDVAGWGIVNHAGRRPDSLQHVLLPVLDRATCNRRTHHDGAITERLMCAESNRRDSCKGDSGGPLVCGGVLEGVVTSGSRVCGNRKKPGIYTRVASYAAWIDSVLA
# Experiment: biochemical
# Format: biochemical
# Settings: read-out: IC50
Value type: pIC50
Lab note — pIC50 values are minus log10 of concentrations in M.

COC(=O)[C@H](Cc1ccccc1)NC(=O)[C@@H]1C[C@H](N)CN1C(=O)Nc1cn(C(N)=O)c2ccccc12 :: 6.05
CC(=O)n1cc(NC(=O)N2C[C@H](F)C[C@H]2C(=O)NCc2cccc(Cl)c2F)c2ccc(OC(F)F)cc21 :: 7.18
CCN(CC)Cc1cc(Cl)c(F)c(CNC(=O)[C@@H]2C[C@@H](F)CN2C(=O)Nc2cn(C(N)=O)c3ccccc23)c1 :: 4.95

Continue with the compound presented below.
Sure, the documented pIC50 for NC(=O)n1cc(NC(=O)N2C[C@@H](N)C[C@H]2C(=O)NCc2ccccc2F)c2ccccc21 is 6.05
